Tested on: HepG2
Test: Antiproliferative activity against human HepG2 cells by MTT assay
Assay type: functional, cell-based
pIC50: −log10 of the molar value.
Label true (1) for high-side pIC50 (at or above 6) and false (0) for low-side pIC50 (below it).

- SAMPLE_SMILES: "CC[C@H](C)[C@@H](C(=O)O[C@H]1CC[C@@]2(C)[C@H](CC[C@@H]3[C@@H]2[C@H](O)C(=O)[C@]2(C)[C@@H](c4ccc(=O)oc4)CC[C@]32O)C1)n1[se]c2cc(OC)ccc2c1=O"
  LABEL_CLASS: "false (0)"
- SAMPLE_SMILES: "C[C@]12CC[C@H](O)C[C@H]1CC[C@@H]1[C@@H]2[C@H](O)C(=O)[C@]2(C)[C@@H](c3ccc(=O)oc3)CC[C@]12O"
  LABEL_CLASS: "true (1)"
- SAMPLE_SMILES: "Cc1ccc2c(=O)n([C@@H](Cc3ccccc3)C(=O)O[C@H]3CC[C@@]4(C)[C@H](CC[C@@H]5[C@@H]4[C@H](O)C(=O)[C@]4(C)[C@@H](c6ccc(=O)oc6)CC[C@]54O)C3)[se]c2c1"
  LABEL_CLASS: "true (1)"
- SAMPLE_SMILES: "Cc1ccc2c(=O)n(CC(=O)O[C@H]3CC[C@@]4(C)[C@H](CC[C@@H]5[C@@H]4[C@H](O)C(=O)[C@]4(C)[C@@H](c6ccc(=O)oc6)CC[C@]54O)C3)[se]c2c1"
  LABEL_CLASS: "true (1)"
- SAMPLE_SMILES: "COc1ccc2c(=O)n([C@@H](Cc3ccccc3)C(=O)O[C@H]3CC[C@@]4(C)[C@H](CC[C@@H]5[C@@H]4[C@H](O)C(=O)[C@]4(C)[C@@H](c6ccc(=O)oc6)CC[C@]54O)C3)[se]c2c1"
  LABEL_CLASS: "true (1)"

###

Assay: Cytotoxic activity against human AC16 cells assessed as cell swelling at 1 uM after 24 hrs by phase contrast microscopic method
Assay type: cell-based

- SAMPLE_SMILES: "COc1ccc2c(=O)n([C@@H](Cc3ccccc3)C(=O)O[C@H]3CC[C@@]4(C)[C@H](CC[C@@H]5[C@@H]4[C@H](O)C(=O)[C@]4(C)[C@@H](c6ccc(=O)oc6)CC[C@]54O)C3)[se]c2c1"
  Activity: "Non-Toxic"
- SAMPLE_SMILES: "C[C@]12CC[C@H](O)C[C@H]1CC[C@@H]1[C@@H]2[C@H](O)C(=O)[C@]2(C)[C@@H](c3ccc(=O)oc3)CC[C@]12O"
  Activity: "Toxic"
- SAMPLE_SMILES: "C[C@]12CC[C@H](OC(=O)[C@H](Cc3ccccc3)n3[se]c4ccccc4c3=O)C[C@H]1CC[C@@H]1[C@@H]2[C@H](O)C(=O)[C@]2(C)[C@@H](c3ccc(=O)oc3)CC[C@]12O"
  Activity: "Non-Toxic"

###

Experiment: Toxicity in ip dosed Kunming mouse assessed as mortality
Format: organism-based
Details: in vivo
MEASUREMENT_KIND: LD50 (mg/kg)

- SAMPLE_SMILES: "C[C@]12CC[C@H](O)C[C@H]1CC[C@@H]1[C@@H]2[C@H](O)C(=O)[C@]2(C)[C@@H](c3ccc(=O)oc3)CC[C@]12O"
  MEASUREMENT_KIND: "LD50"
  UNIT_SPEC: "mg/kg"
  OBSERVED_VALUE: 20
